// values below are reported pIC50
Tested on: GM3 expression on the cell surface, B16 mouse melanoma cells
MEASUREMENT_DESCRIPTION: cell based phenotypic assay, cell surface GM3 by antibody mediated immunofluorescence, B16 (GM3 B16 IC50)
RUN_PARAMETERS: read-out: GM3 B16 IC50; B16 mouse melanoma cells; 50% inhibition of GM3 expression on the cell surface
Experimental: The cell based assay was performed in two different cell types, B16 and C32. Cell viability was also assessed in the second, cell-based assay. The “Compound Number” in the table corresponds to the compound disclosed in the Example of the same number. […] The results of the cell based assays (performed in two different cell systems, i.e. B16 mouse melanoma or C32 human melanoma cells) are expressed as “GM3 B16 IC50” or “GM3 C32 IC50” for the B16 assay and the C32 assay, respectively. […]
pIC50: −log10 of the molar value.
EXPERIMENTAL_ENDPOINT: pIC50

- COMPOUND: "CN(C)C(=O)c1ccc(Oc2ccc(C(C)(C)NC(=O)OC3CN4CCC3CC4)cc2)cc1 (centres unmarked) [Example 287]"
  TARGET_OR_SYSTEM: "GM3 expression on the cell surface, B16 mouse melanoma cells"
  MEASURED: 5.66
- COMPOUND: "CN(C)C(=O)c1ccc(Oc2ccc(C(C)(C)NC(=O)OC3CN4CCC3CC4)cc2)cc1 (centres unmarked) [Example 283]"
  TARGET_OR_SYSTEM: "GM3 expression on the cell surface, B16 mouse melanoma cells"
  MEASURED: 5.99
